# assay info: Pharmacokinetic parameters for Enctacpone after single oral administartion of 200 and 800 mg Entacapone tablets to volunteers.
# Type: ADME, organism-based
# Set-up: dose 200 mg, route oral
# particulars: human, in vivo, 200 mg, dosed compound id 40, dosed compound name ENTACAPONE, regimen Single dose, tissue Plasma

molecule | units label | Cmax
CCN(CC)C(=O)/C(C#N)=C/c1cc(O)c(O)c([N+](=O)[O-])c1 [ENTACAPONE] | ng/mL | 1200
